Molecular target: HLA-C*15:02
Test: IEDB peptide-MHC binding, purified MHC/direct/fluorescence; filed as Kd, often an IC50 or EC50 that approximates it; bounds were set here for any values at or beyond the usual limits of such assays
Details: source organism: dengue virus type 4
pKd: −log10 of the molar value.
measure: pKd

>>> result("FTTNIWMKF")
"≤ 4.70"

----------
Target: HLA-A*68:02
Test: IEDB peptide-MHC binding, purified MHC/competitive/radioactivity; filed as Kd, often an IC50 or EC50 that approximates it; bounds were set here for any values at or beyond the usual limits of such assays
Conditions: source organism: Dengue virus 2 Jamaica/1409/1983
Cut-off 10 nM on Kd: below means Yes, at or above means No.

>>> assignedclass("LTYVVIAILT")
"No"
>>> assignedclass("FTMRLLSPV")
"Yes"
>>> assignedclass("EVKKQRAGV")
"No"
>>> assignedclass("SVSLVLVGV")
"Yes"

----------
Target: HLA-A*24:02
Assay: IEDB peptide-MHC binding, purified MHC/competitive/radioactivity; filed as Kd, often an IC50 or EC50 that approximates it; bounds were set here for any values at or beyond the usual limits of such assays
Details: source organism: Dengue virus 2 Peru/IQT2913/1996
pKd: −log10 of the molar value.
measure: pKd

>>> result("LYAVATTFIT")
"≤ 4.63"

----------
Molecular target: HLA-A*26:01
Assay: IEDB peptide-MHC binding, purified MHC/competitive/radioactivity; filed as Kd, often an IC50 or EC50 that approximates it; bounds were set here for any values at or beyond the usual limits of such assays
Conditions: source organism: Dengue virus 4 Philippines/H241/1956
measure: Kd (µM)

>>> readoutnumber("TTAKEVALL")
1.9
>>> readoutnumber("DVIPMVTQL")
0.112
>>> readoutnumber("STRDGEPLM")
8.19
>>> readoutnumber("EFIDGISLGL")
4.72

----------
Molecular target: HLA-C*05:01
Experiment: IEDB peptide-MHC binding, purified MHC/direct/fluorescence; filed as Kd, often an IC50 or EC50 that approximates it; bounds were set here for any values at or beyond the usual limits of such assays
Details: source organism: Vaccinia virus Copenhagen
pKd: −log10 of the molar value.
measure: pKd

>>> result("YTDLTYQSF")
"≥ 9.00"

----------
Target: HLA-A*02:01
Experiment: IEDB peptide-MHC binding, purified MHC/direct/fluorescence; filed as Kd, often an IC50 or EC50 that approximates it; bounds were set here for any values at or beyond the usual limits of such assays
Conditions: source organism: Influenza A virus (A/Hong Kong/514/97(H5N1))
pKd: −log10 of the molar value.
measure: pKd

>>> result("VSDGGPNLY")
"≤ 4.70"

----------
Target: HLA-B*58:01
Assay: IEDB peptide-MHC binding, purified MHC/competitive/fluorescence; filed as Kd, often an IC50 or EC50 that approximates it; bounds were set here for any values at or beyond the usual limits of such assays
Details: source organism: Brucella canis ATCC 23365
measure: Kd

>>> result("ETVWPFFYA")
"≥ 5 µM"

----------
Target: HLA-A*69:01
Test: IEDB peptide-MHC binding, purified MHC/direct/fluorescence; filed as Kd, often an IC50 or EC50 that approximates it; bounds were set here for any values at or beyond the usual limits of such assays
Conditions: source organism: Mycobacterium tuberculosis
pKd: −log10 of the molar value.
Documented pKd across a set of sequences
measure: pKd

>>> result("SPREECGVF")
"≤ 4.70"
>>> result("KLVGIELPK")
"≤ 4.70"

The values you see were collected from the Immune Epitope Database (IEDB).
